Recorded values, source patent US7101851.

Biological target: T1, alpha subunit of the human FcεRI receptor expressed on Chinese hamster ovary cells (human, UniProt P12319 26-257)
T1 construct: whole, on cells; also called CHO FcεRI+ cells
T1 sequence (looked up): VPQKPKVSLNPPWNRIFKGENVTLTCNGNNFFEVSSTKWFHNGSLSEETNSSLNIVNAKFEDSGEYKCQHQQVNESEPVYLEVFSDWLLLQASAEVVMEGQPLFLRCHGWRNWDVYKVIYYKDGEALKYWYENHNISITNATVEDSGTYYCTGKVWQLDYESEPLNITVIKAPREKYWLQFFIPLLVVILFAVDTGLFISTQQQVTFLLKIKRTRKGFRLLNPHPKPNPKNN
Assay: inhibition of 125I-IgE binding to CHO cells expressing human FcεRI alpha subunit
Bridges are numbered along the chain shown (N, C = ends). Where no end group is shown, it is not given here. [ ]: non-standard residue; d: D form. NMeA = CN[C@@H](C)C(=O)O
Flag rule - IC50 less than 80 µM flags t; the remaining entries get f.

Use these answered entries as a reference point.
Ac-NLPCTEGPWGWVCM (disulfide 4-13 (inferred), synthetic; As printed it lacks the Arg before the first Cys) [IGE107] | t
Ac-NLPRCTEG[NMeA]WGWVCM (disulfide 5-14 (inferred), synthetic) [IGE096] | t
NLPRCTEGPWAWVCM (disulfide 5-14 (inferred), synthetic) [IGE074] | t

[ask] Here's an entry: Ac-NLPRCTEGPAWGWVCM (disulfide 5-15 (inferred), synthetic) [IGE125] . Is its IC50 below 80 µM?
[reply] f

[ask] Subsequent entry: Ac-NLPRCTEGPNGWVCMAAD-NH2 (disulfide 5-14 (inferred), synthetic) [IGE050]
[reply] t

[ask] # iterate: Ac-CTEGPWGWFCI-NH2 (disulfide 1-10 (inferred), synthetic) [IGE046]
[reply] f
